tested on: wild oat (Avena fatua); assay: Test B pre-/postemergence; assay type: in vivo; conditions: Rate 62 g/ha, Preemergence

| molecule | assayed-system | Wild oats plant response rating |
| --- | --- | --- |
| Cc1cnc(-n2cnc(C(F)(F)F)c2)nc1Cc1cccc(C(F)(F)F)c1 | wild oat (Avena fatua) | 6 |
| Cc1cnc(-c2ccc(F)cc2F)nc1Cc1cccc(C(F)(F)F)c1 | wild oat (Avena fatua) | 0 |
| Cc1cnc(-c2ccc(C#N)cc2)nc1Cc1cccc(C(F)(F)F)c1 | wild oat (Avena fatua) | 1 |
| Cc1cnc(-c2ccc(C(F)(F)F)cc2)nc1Cn1ccc(C(F)(F)F)n1 | wild oat (Avena fatua) | 5 |
| Cc1cnc(-c2ccc(Cl)c(Cl)c2)nc1Cc1cccc(C#N)c1 | wild oat (Avena fatua) | 0 |
| Cc1cnc(-c2ccc(OC(F)(F)F)cc2)nc1Cc1cccc(C(F)(F)F)c1 | wild oat (Avena fatua) | 0 |
| Cc1cnc(-c2ccccc2F)nc1Cc1cccc(C(F)(F)F)c1 | wild oat (Avena fatua) | 0 |
| Cc1cnc(-c2cccc(C(F)(F)F)c2)nc1Cc1cccc(C(F)(F)F)c1 | wild oat (Avena fatua) | 0 |
| Cc1cnc(-c2ccc(C(F)(F)F)cc2)nc1C(C)c1cccc(C(F)(F)F)c1 (racemic) | wild oat (Avena fatua) | 0 |
